# testedOn: purified human Factor XIa (Homo sapiens (Human), UniProt P03951)
# Sequence (P03951 388-625): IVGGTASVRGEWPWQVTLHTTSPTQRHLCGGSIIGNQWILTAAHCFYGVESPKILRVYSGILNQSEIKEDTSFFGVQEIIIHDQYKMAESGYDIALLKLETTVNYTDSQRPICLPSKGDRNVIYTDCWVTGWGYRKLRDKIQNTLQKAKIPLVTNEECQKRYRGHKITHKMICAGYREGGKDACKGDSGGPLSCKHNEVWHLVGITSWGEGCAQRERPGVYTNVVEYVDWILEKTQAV
# Sequence (P03951 19-387 partner): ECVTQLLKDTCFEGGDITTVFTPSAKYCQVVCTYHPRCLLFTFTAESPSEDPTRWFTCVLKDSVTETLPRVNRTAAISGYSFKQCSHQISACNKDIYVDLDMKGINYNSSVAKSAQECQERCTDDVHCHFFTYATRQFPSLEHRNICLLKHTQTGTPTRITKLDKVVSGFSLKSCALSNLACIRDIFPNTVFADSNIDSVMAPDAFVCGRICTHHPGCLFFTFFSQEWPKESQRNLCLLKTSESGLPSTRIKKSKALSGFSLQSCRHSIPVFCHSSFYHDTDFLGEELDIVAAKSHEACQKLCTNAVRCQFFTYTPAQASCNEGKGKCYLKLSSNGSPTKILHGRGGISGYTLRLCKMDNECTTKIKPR
# experimentalDetails: Factor XIa Assay
# Type: biochemical
# assaySetup: substrate Z-Gly-Pro-Arg-AFC 100 μM, 40 pM enzyme, pH 7.4; read-out: FXIa IC50
# Protocol: The effectiveness of a compound of the present invention as an inhibitor of Coagulation Factor XIa can be determined using a relevant purified serine protease, and an appropriate synthetic substrate. The rate of hydrolysis of the chromogenic or fluorogenic substrate by the relevant serine protease was measured both in the absence and presence of compounds of the present invention. […] A decrease in the rate of fluorescence change in the presence of inhibitor is indicative of enzyme inhibition. […]
Let's look at some compounds and their measured pIC50.
The scale used: pIC50 is minus the common logarithm of the concentration in molar units.

O=C(NCC1CCOC1)N1CCC(c2cccc([C@H](Cc3ccccc3)c3ccc(-c4cc(Cl)ccc4-n4cnnn4)c[n+]3[O-])c2)CC1 (stereo partly drawn)
8.19
COCCC(=O)N1CCC(c2cccc([C@H](Cc3ccccc3)c3ccc(-c4cc(Cl)ccc4-n4cnnn4)c[n+]3[O-])c2)CC1
7.95

Now for the compound whose pIC50 we want.
[in] Input `O=C(C1CC1)N1CCC(c2cccc([C@H](Cc3ccccc3)c3ccc(-c4cc(Cl)ccc4-n4cnnn4)c[n+]3[O-])c2)CC1` , output reported pIC50.
[out] 7.97
